# target_entity: rP2X7-I214A (Rattus norvegicus, UniProt Q64663, I214A)
# procedure_summary: TEVC dose response
# experimental_conditions: read-out: EC50 (apparent affinity), mean ± SD, triplicate
attribute_measured: EC50 (µM)
Kindly provide the numeric value in µM only, without the unit symbol.

The compound Nc1ncnc2c1ncn2[C@@H]1O[C@H](COP(=O)(O)OP(=O)(O)OP(=O)(O)O)[C@@H](O)[C@H]1O showed EC50 equal to 68

====

# target_entity: rP2X7-Q143A/I214A (Rattus norvegicus, UniProt Q64663, I214A/Q143A)
# procedure_summary: TEVC dose response
# experimental_conditions: read-out: EC50 (apparent affinity), mean ± SD, triplicate
attribute_measured: pEC50
# log scale: pEC50 equals minus log10 of the concentration in mol/L

For record Nc1ncnc2c1ncn2[C@@H]1O[C@H](COP(=O)(O)OP(=O)(O)OP(=O)(O)O)[C@@H](O)[C@H]1O [ATP] the listed pEC50 is 3.54

====

# target_entity: rP2X7-I214G (Rattus norvegicus, UniProt Q64663, I214G)
# procedure_summary: TEVC dose response
# experimental_conditions: read-out: EC50 (apparent affinity), mean ± SD, triplicate
attribute_measured: EC50 (µM)
Report as a plain number; the unit µM is understood.

EC50 for Nc1ncnc2c1ncn2[C@@H]1O[C@H](COP(=O)(O)OP(=O)(O)OP(=O)(O)O)[C@@H](O)[C@H]1O [ATP] is 171

====

# target_entity: rP2X7-R125A/Q143A/I214A (Rattus norvegicus, UniProt Q64663, I214A/Q143A/R125A)
# Sequence (Q64663 1-595 R125A/Q143A/I214A): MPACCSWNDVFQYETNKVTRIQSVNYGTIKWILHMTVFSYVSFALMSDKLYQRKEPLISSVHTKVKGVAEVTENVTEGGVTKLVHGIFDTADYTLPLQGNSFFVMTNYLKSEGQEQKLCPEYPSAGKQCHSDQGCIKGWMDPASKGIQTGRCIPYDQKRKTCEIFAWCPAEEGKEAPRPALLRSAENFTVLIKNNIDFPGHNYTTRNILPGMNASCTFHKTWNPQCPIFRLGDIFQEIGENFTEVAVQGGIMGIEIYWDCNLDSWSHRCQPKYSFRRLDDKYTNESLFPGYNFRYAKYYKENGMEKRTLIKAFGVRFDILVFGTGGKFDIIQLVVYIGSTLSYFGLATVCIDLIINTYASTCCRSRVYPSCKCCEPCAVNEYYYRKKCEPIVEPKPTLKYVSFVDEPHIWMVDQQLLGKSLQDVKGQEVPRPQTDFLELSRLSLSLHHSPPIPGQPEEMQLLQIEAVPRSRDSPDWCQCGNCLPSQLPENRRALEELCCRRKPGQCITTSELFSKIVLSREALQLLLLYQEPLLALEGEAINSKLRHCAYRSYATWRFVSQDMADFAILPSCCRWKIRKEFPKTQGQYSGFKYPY
# procedure_summary: TEVC dose response
# experimental_conditions: read-out: EC50 (apparent affinity), mean ± SD, triplicate
attribute_measured: EC50 (µM)
Report the figure in µM without appending any unit label.

Form field, EC50 with rP2X7-R125A/Q143A/I214A (Rattus norvegicus, UniProt Q64663, I214A/Q143A/R125A), item Nc1ncnc2c1ncn2[C@@H]1O[C@H](COP(=O)(O)OP(=O)(O)OP(=O)(O)O)[C@@H](O)[C@H]1O [ATP] : 203

====

# target_entity: rP2X7-R125A (Rattus norvegicus, UniProt Q64663, R125A)
# procedure_summary: TEVC dose response
# Type: cell-based
# experimental_conditions: read-out: EC50 (apparent affinity), mean ± SD, triplicate
attribute_measured: pEC50
Kindly note that pEC50 refers to -log10 of the concentration in mol/L and answer with the value alone.

Entry Nc1ncnc2c1ncn2[C@@H]1O[C@H](COP(=O)(O)OP(=O)(O)OP(=O)(O)O)[C@@H](O)[C@H]1O — recorded pEC50 = 4.39

====

# target_entity: rP2X7-R125A/Q143A (Rattus norvegicus, UniProt Q64663, Q143A/R125A)
# procedure_summary: TEVC dose response
# experimental_conditions: read-out: EC50 (apparent affinity), mean ± SD, triplicate
attribute_measured: EC50 (µM)
Provide the reading as a plain figure in µM.

Record Nc1ncnc2c1ncn2[C@@H]1O[C@H](COP(=O)(O)OP(=O)(O)OP(=O)(O)O)[C@@H](O)[C@H]1O . Reported EC50: 114

====

# target_entity: rP2X7-R125A/I214A (Rattus norvegicus, UniProt Q64663, I214A/R125A)
# procedure_summary: TEVC dose response
# experimental_conditions: read-out: EC50 (apparent affinity), mean ± SD, triplicate
attribute_measured: pEC50
Please express pEC50 as -log10 of the molar concentration.

pEC50 reported for this molecule Nc1ncnc2c1ncn2[C@@H]1O[C@H](COP(=O)(O)OP(=O)(O)OP(=O)(O)O)[C@@H](O)[C@H]1O : 4.11
